The binders listed here are annotated with their OD450.
# SYSTEM_TESTED: T1, human MSLN-R3-his protein (human, UniProt Q13421 487-598)
# T1 construct: also called human MSLN-R3 protein; hMSLN-R3-his; not shown: His tag
# METHOD_SUMMARY: ELISA, coated antigen; antibody 0.1 nM

IN: Given S009-F3.45.21 (antibody, human IgG1, kappa, V domains shown, Human-murine chimeric antibody, human IgG1/kappa constant regions) VH: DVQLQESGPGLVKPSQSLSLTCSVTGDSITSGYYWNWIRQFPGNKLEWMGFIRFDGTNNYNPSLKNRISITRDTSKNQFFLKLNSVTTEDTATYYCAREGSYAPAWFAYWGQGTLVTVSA VL: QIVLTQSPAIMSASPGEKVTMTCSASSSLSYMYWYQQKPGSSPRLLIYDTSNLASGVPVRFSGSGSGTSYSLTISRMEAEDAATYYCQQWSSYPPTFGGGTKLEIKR , respond with its OD450.
OUT: 0.06 OD450

IN: Given S009-F3.74.20 (antibody, human IgG1, kappa, V domains shown, Human-murine chimeric antibody, human IgG1/kappa constant regions) VH: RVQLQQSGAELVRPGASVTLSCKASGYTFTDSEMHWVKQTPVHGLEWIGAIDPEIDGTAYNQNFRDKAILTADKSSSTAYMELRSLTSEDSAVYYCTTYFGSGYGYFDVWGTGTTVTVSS VL: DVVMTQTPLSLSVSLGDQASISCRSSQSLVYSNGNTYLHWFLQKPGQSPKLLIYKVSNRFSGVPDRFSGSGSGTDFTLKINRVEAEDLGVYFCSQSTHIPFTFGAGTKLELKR , respond with its OD450.
OUT: 1.07 OD450

IN: Given S009-F3.38.10 (antibody, human IgG1, kappa, V domains shown, Human-murine chimeric antibody, human IgG1/kappa constant regions) VH: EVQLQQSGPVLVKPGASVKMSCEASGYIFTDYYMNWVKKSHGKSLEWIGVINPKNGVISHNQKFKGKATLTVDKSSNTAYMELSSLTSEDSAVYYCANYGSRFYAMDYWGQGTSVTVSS VL: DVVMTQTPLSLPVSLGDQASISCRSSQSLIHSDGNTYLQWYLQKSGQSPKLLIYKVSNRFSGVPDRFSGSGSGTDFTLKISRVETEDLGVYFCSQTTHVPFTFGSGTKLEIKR , respond with its OD450.
OUT: 1.47 OD450

IN: Given S009-F3.7.3 (antibody, human IgG1, kappa, V domains shown, Human-murine chimeric antibody: murine VH/VL on human IgG1 heavy chain constant region and human kappa constant region) VH: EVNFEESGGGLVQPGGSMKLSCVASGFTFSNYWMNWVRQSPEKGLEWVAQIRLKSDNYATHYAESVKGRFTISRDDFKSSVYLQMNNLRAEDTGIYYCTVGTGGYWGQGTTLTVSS VL: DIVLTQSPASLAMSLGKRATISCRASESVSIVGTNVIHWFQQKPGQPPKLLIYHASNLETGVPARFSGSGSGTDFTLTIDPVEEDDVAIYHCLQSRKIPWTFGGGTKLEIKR , respond with its OD450.
OUT: 1.13 OD450
